Field: EC50 (read off the curve). Provide a value for each of the binders that follow.
- TARGET: T1, glycoprotein B (gB) of HSV-1 strain F on infected Vero cells (Herpes simplex virus type 1, strain F, UniProt P06436 30-903)
- T1 construct: whole, on cells; also called HSV-1 F; Wild-type strain F
- MEASUREMENT_DESCRIPTION: flow cytometry on HSV-1 F infected Vero cells

BINDER	EC50 (read off the curve)
humanized mAb h2c-V1 (antibody, V domains shown, also called hu2c-V1; mAb hu2c-V1) VH: QVTLKESGPALVKPTQTLTLTCTFSGFSLSTSGMSVGWIRQPPGKALEWLAHIWWNNDKYYKPALKSRLTISKDTSKNQVVLTMTNMDPVDTATYYCARIYYGYRPYAMDYWGQGTLVTVSS VL: DIVMTQTPLSLPVTPGEPASISCRSSQSIVHSNGNTYLEWYLQKPGQSPQLLIYKVSNRFSGVPDRFSGSGSGTDFTLKISRVEAEDVGVYYCFQGSHVPWSFGQGTKVEIKR	~10 nM
humanized mAb h2c-V4 (antibody, V domains shown, also called hu2c-V4) VH: QVTLKESGPALVKPTQTLTLTCTFSGFSLSTSGMSVGWIRQPPGKALEWLAHIWWNNDKYYKPALKSRLTISKDTSKKQVFLTMTNMDPVDTATYYCARIYYGYRPYAMDYWGQGTLVTVSS VL: DVVMTQTPLSLPVTPGEPASISCRSSQSIVHSNGNTYLEWYLQKPGQSPQLLIYKVSNRFSGVPDRFSGSGSGTDFTLKISRVEAEDVGVYYCFQGSHVPWSFGQGTKVEIKR	~10 nM
humanized mAb h2c-V2 (antibody, V domains shown, also called hu2c-V2) VH: QVTLKESGPALVKPTQTLTLTCTFSGFSLSTSGMSVGWIRQPPGKALEWLAHIWWNNDKYYKPALKSRLTISKDTSKKQVVLTMTNMDPVDTATYYCARIYYGYRPYAMDYWGQGTLVTVSS VL: DIVMTQTPLSLPVTPGEPASISCRSSQSIVHSNGNTYLEWYLQKPGQSPQLLIYKVSNRFSGVPDRFSGSGSGTDFTLKISRVEAEDVGVYYCFQGSHVPWSFGQGTKVEIKR	~20 nM

Input: Item under review: humanized mAb h2c-V3 (antibody, V domains shown, also called hu2c-V3) VH: QVTLKESGPALVKPTQTLTLTCTFSGFSLSTSGMSVGWIRQPPGKALEWLAHIWWNNDKYYKPALKSRLTISKDTSKKQVFLTMTNMDPVDTATYYCARIYYGYRPYAMDYWGQGTLVTVSS VL: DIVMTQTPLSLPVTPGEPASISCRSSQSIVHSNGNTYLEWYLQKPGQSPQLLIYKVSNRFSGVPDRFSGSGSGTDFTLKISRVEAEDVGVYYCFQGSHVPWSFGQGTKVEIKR . Reported EC50 (read off the curve)?
Output: ~10 nM
